Below, each entry is listed alongside its reported CC50 at 24 h.
test-name: Cytotoxicity against human HEK293T cells assessed as reduction in cell viability at 24 hrs by CCK8 assay
Type: cell-based, HEK-293T
measurement-setup: read-out: TD50
Enter your answer as a number in µM; do not include the unit.

As a guide, the following entries are already answered.
compound-smiles	CC50 at 24 h, µM
CSc1ccc(C(=O)/C=C/c2cc(C)c(OC(C)(C)C(=O)O)c(C)c2)cc1	142
CSc1ccc(C(=O)/C=C/c2cc(C)c(O)c(C)c2)cc1	86.2

Could you now look at the following compound, please?
// query Could you tell me which CC50 at 24 h is on file for "C=CC(=O)Nc1ccc(C(=O)/C=C/c2cc(C)c(O)c(C)c2)cc1" ?
// result 156
